# Test system: Mycobacteroides chelonae
# Assay Name: Antimycobacterial activity against Mycobacterium chelonae ATCC 35752 after 8 days by resazurin microtiter based colorimetric assay
# Type: functional
# Reported Conditions: ATCC 35752, 192 h
Recorded measurements of MIC, one per entry
Assay Metric: MIC

CCCCCCCNC(=O)c1cc2ccccc2[nH]1: > 32 µg/mL
CCC12CC3CC(C1)CC(NC(=O)c1cc4ccccc4[nH]1)(C3)C2: > 32 µg/mL
Cc1cc(C)c2cc(C(=O)NC3C4CC5CC(C4)CC3C5)[nH]c2c1 (stereo not drawn): > 32 µg/mL
C[C@@H]1[C@H]2C[C@@H](C[C@H]1NC(=O)c1cc3ccccc3[nH]1)C2(C)C: < 0.06 µg/mL
O=C(NCc1cccc(Cl)c1)c1cc2ccccc2[nH]1: > 32 µg/mL
O=C(NC1CCCC1)c1cc2ccccc2[nH]1: > 32 µg/mL
Cc1cc(C)c2cc(C(=O)NC3CCCCCC3)[nH]c2c1: ≤ 0.06 µg/mL
CCCCCCCCNC(=O)c1cc2c(C)cc(C)cc2[nH]1: > 32 µg/mL

* * *

Recorded measurements of MIC, one per entry
# Assay Name: Antimycobacterial activity against Mycobacterium massiliense isolate CIP108297 after 8 days by resazurin microtiter based colorimetric assay
# Format: functional, Mycobacterium abscessus subsp. massiliense
# Reported Conditions: Mycobacteroides abscessus, isolate CIP108297, 192 h
Assay Metric: MIC

Cc1cc(C)c2cc(C(=O)NC(C)C34CC5CC(CC(C5)C3)C4)[nH]c2c1 (stereo not given): 8 µg/mL
Cc1cc(C)c2cc(C(=O)NC34CC5CC(CC(C5)C3)C4)[nH]c2c1: > 32 µg/mL
Cc1cc(C)c2cc(C(=O)N[C@H]3CC[C@H](C)CC3)[nH]c2c1: ≤ 0.06 µg/mL
O=C(NCc1cccc(Cl)c1)c1cc2ccccc2[nH]1: > 32 µg/mL
Cc1cc(C)c2cc(C(=O)NC3C4CC5CC(C4)CC3C5)[nH]c2c1 (stereo not given): > 32 µg/mL
CCCCCCCNC(=O)c1cc2ccccc2[nH]1: > 32 µg/mL
CCC12CC3CC(C1)CC(NC(=O)c1cc4c(C)cc(C)cc4[nH]1)(C3)C2: > 32 µg/mL
O=C(NC12CC3CC(CC(C3)C1)C2)c1cc2ccccc2[nH]1: 0.5 µg/mL
Cc1cc(C)c2cc(C(=O)NCC34CC5CC(CC(C5)C3)C4)[nH]c2c1: > 32 µg/mL
Cc1cc(C)c2cc(C(=O)NC3CCC(C)CC3)[nH]c2c1 (mixture of isomers): ≤ 0.06 µg/mL

* * *

# Assay Name: Selectivity index, ratio of TD50 for human THP1 cells to MIC for Mycobacterium tuberculosis H37Rv MC2-6206
# Format: toxicity
# Reported Conditions: THP-1 cells, read-out: Selectivity Index
Assay Metric: selectivity ratio

O=C(NC12CC3CC(CC(C3)C1)C2)c1cc2ccccc2[nH]1: > 73
Cc1cc(C)c2cc(C(=O)NC3CCCCCCC3)[nH]c2c1: > 764
Cc1cc(C)c2cc(C(=O)N[C@@H]3C[C@@H]4C[C@H]([C@H]3C)C4(C)C)[nH]c2c1: > 830
C[C@@H]1[C@H]2C[C@@H](C[C@H]1NC(=O)c1cc3ccccc3[nH]1)C2(C)C: 226
